The values you see were collected from PubChem BioAssay (NCI).

I'd be grateful if you could share measured TGI for these entries.
tested on: SK-MEL-5 melanoma; assay: NCI tumour cell line growth inhibition, 48 h
Write it as a number; the unit µM goes unstated.

### Prompt Which TGI reading was recorded for the molecule O=[N+]([O-])c1ccc(N=Nc2ccc(O)c3ccccc23)cc1 ?
### Response 13.6

### Prompt Which TGI reading was recorded for the molecule O=c1oc2c(Cl)cc(Cl)cc2cc1C1=CSC2=NCCN12 ?
### Response 88.8

----------
tested on: OVCAR-8 ovarian; experiment: NCI tumour cell line growth inhibition, 48 h; in the data active = GI50 below about 0.43 µM; inactive = the rest
Output constraint: value belongs to active, inactive

### Prompt Query: recorded result category for C=C1c2ccoc2C[C@H]2[C@H]1CC[C@@]1(O)[C@@](C)(C(=O)OC)CCC[C@]21C in this test
### Response inactive

### Prompt Query: recorded result category for O=C(Nc1ccc(Oc2cccc(F)c2)c(Cl)c1)c1cnccn1 in this test
### Response inactive

### Prompt Query: recorded result category for [O-]c1ccccc1/C=N/C(/N=C/c1ccccc1[O-])c1ccccc1O.[O-]c1ccccc1/C=N/C(/N=C/c1ccccc1[O-])c1ccccc1O.[Zr+4] in this test
### Response inactive

### Prompt Query: recorded result category for Cc1ccc(-c2csc(NC(=O)N3CCN(c4cc5c(cc4F)c(=O)c(C(=O)O)cn5C4CC4)CC3)n2)cc1 in this test
### Response active

### Prompt Query: recorded result category for COc1ccc(N(/C=C/C(=O)C(F)(F)F)CC(=O)c2ccc(F)cc2)cc1 in this test
### Response inactive

### Prompt Query: recorded result category for CC(=O)[CH-]C(=O)c1ccccc1.CC(=O)[CH-]C(=O)c1ccccc1.CC(=O)[CH-]C(=O)c1ccccc1.[In+3] in this test
### Response inactive

### Prompt Query: recorded result category for Cc1ccc(C(=O)NC2CCC2)cc1-c1ccc(C(=O)NCC2CC2)cc1 in this test
### Response inactive

### Prompt Query: recorded result category for Cc1cn2c(/C=C3/C(=O)Nc4ccc(O)cc43)c(C)nc2s1 in this test
### Response inactive

### Prompt Query: recorded result category for O=C1NOC(c2ccc(O)cc2)(c2ccc(O)cc2)c2ccccc21 in this test
### Response inactive

----------
tested on: HCT-116 colon; assay: NCI tumour cell line growth inhibition, 48 h
endpoint: TGI

### Prompt Which TGI reading was recorded for the molecule Cc1ccc2c(/C=C/c3ccc(N(C)C)cc3)ccc(C(C)C)cc1-2 ?
### Response > 100 µM

### Prompt Which TGI reading was recorded for the molecule CC(C)CCNCC(O)Cn1c2ccccc2c2ccccc21 (stereo not given) ?
### Response 24.1 µM

### Prompt Which TGI reading was recorded for the molecule Nc1c(C(=O)c2cccc(-c3cccnc3)c2)cnn1-c1ccc(F)cc1F ?
### Response > 25 µM

### Prompt Which TGI reading was recorded for the molecule ClCCCCCc1c2nc(c(CCCCCCl)c3ccc([nH]3)c(CCCCCCl)c3ccc([nH]3)c(CCCCCCl)c3nc1C=C3)C=C2 ?
### Response > 100 µM

### Prompt Which TGI reading was recorded for the molecule CCOC(=O)C(Cl)(NC(=O)OCc1ccccc1)C(F)(F)F (stereo not given) ?
### Response > 100 µM

----------
test system: SK-MEL-5 melanoma; test: NCI tumour cell line growth inhibition, 48 h
I'd be grateful if you could share measured TGI for these entries.
Write it as a number; the unit µM goes unstated.

### Prompt Which TGI reading was recorded for the compound CCc1cccc(C)c1NC(=O)C1=C(C)NC(C)=C(C(=O)Nc2c(C)cccc2CC)C1c1ccc2c(c1)OCO2 ?
### Response 31.9

### Prompt Which TGI reading was recorded for the compound CCN1CN(c2ccccc2)C2(CCN(CC(CC3OCCO3)c3ccc(F)cc3)CC2)C1=O (stereo not given) ?
### Response 15.2

### Prompt Which TGI reading was recorded for the compound O=C(NNC(=O)c1csc(NC(=S)NC2CCCCC2)n1)c1ccccc1 ?
### Response 19.7

### Prompt Which TGI reading was recorded for the compound CN(C)c1ccc(C(=NO)c2ccc(N(C)C)cc2)cc1 ?
### Response 4.74

### Prompt Which TGI reading was recorded for the compound Cn1c(N)nc(-c2ccc(Cl)cc2)c1SSc1c(-c2ccc(Cl)cc2)nc(N)n1C ?
### Response 3.2

### Prompt Which TGI reading was recorded for the compound Nc1ccccc1C#C/C=C\C#Cc1cccc(O)c1 ?
### Response 14.5

### Prompt Which TGI reading was recorded for the compound O=C(c1cc2c(c3ccccc13)NC1(CCCCC1)N=C2C(F)(F)F)C(F)(F)F ?
### Response 18.2

----------
tested on: TK-10 renal; assay: NCI tumour cell line growth inhibition, 48 h
endpoint: GI50

### Prompt Which GI50 reading was recorded for the compound Nc1ccccc1C#C/C=C\C#Cc1cccc(O)c1 ?
### Response 8730 nM

### Prompt Which GI50 reading was recorded for the compound Cc1nn(-c2ccc([N+](=O)[O-])cc2)c2ncnc(N/N=C/c3ccccc3O)c12 ?
### Response 942 nM

### Prompt Which GI50 reading was recorded for the compound Cc1ccc(C(=O)NC2CCC2)cc1-c1ccc(C(=O)NCC2CC2)cc1 ?
### Response > 25000 nM

### Prompt Which GI50 reading was recorded for the compound O=C1c2ccc3c4c(ccc(c24)C(=O)N1CCCNCc1ccccc1Cl)C(=O)N(CCCNCc1ccccc1Cl)C3=O ?
### Response 179 nM

### Prompt Which GI50 reading was recorded for the compound Cc1[nH]c2ccc(F)cc2c1-c1nc2c3cccnc3c3ncccc3c2[nH]1 ?
### Response 460 nM

----------
system: HCT-116 colon; assay: NCI tumour cell line growth inhibition, 48 h
endpoint: GI50

### Prompt Which GI50 reading was recorded for the molecule O=c1c(O)c(-c2ccc(O)c(O)c2)oc2cc(O)cc(O)c12 ?
### Response 16900 nM

### Prompt Which GI50 reading was recorded for the molecule COC(=N)c1c(N)[n+]([O-])c2ccc(F)cc2[n+]1[O-] ?
### Response > 100000 nM

### Prompt Which GI50 reading was recorded for the molecule CCOc1cc2c(c(OCC)c1O)CC[C@@H]1[C@@H]2CC[C@]2(C)[C@@H](O)CC[C@@H]12 ?
### Response 801 nM

### Prompt Which GI50 reading was recorded for the molecule Nc1c(C(=O)c2cccc(-c3cccnc3)c2)cnn1-c1ccc(F)cc1F ?
### Response 2870 nM

### Prompt Which GI50 reading was recorded for the molecule O=[N+]([O-])c1ccc(N=Nc2ccc(O)c3ccccc23)cc1 ?
### Response 2020 nM

----------
tested on: HOP-62 NSCLC; experiment: NCI tumour cell line growth inhibition, 48 h; in the data active means GI50 below about 0.43 µM; inactive means the rest
Output constraint: value belongs to active, inactive

### Prompt Query: recorded result category for COc1cc(/C=C/C(=O)c2ccc(F)cc2)ccc1OCCCN1CCN(CC(=O)Nc2ccc(Cl)cc2C(=O)c2ccccc2Cl)CC1 in this test
### Response inactive

### Prompt Query: recorded result category for Nc1c(C(=O)c2cccc(-c3cccnc3)c2)cnn1-c1ccc(F)cc1F in this test
### Response inactive

### Prompt Query: recorded result category for COc1ccccc1CNCCCN1C(=O)c2ccc3c4c(ccc(c24)C1=O)C(=O)N(CCCN)C3=O in this test
### Response inactive

### Prompt Query: recorded result category for Cc1[nH]c(=O)nc(Nc2ccc(Cl)cc2)c1C(=O)N1CCN(CCO)CC1 in this test
### Response inactive

### Prompt Query: recorded result category for O=C(Nc1ccc(Oc2cccc(F)c2)c(Cl)c1)c1cnccn1 in this test
### Response inactive

### Prompt Query: recorded result category for O=[N+]([O-])c1ccc(N=Nc2ccc(O)c3ccccc23)cc1 in this test
### Response inactive

### Prompt Query: recorded result category for C[CH2][Sn]([CH2]C)([O]C(=O)c1ccccc1F)[O][Sn]([CH2]C)([CH2]C)[O]C(=O)c1ccccc1F in this test
### Response inactive

### Prompt Query: recorded result category for COC(=O)c1cc2ccccc2c2c3c(ccc12)OCO3 in this test
### Response inactive

### Prompt Query: recorded result category for COc1ccc(CC(=O)c2ccc(O)cc2O)cc1 in this test
### Response inactive

### Prompt Query: recorded result category for O=C1c2ccc3c4c(ccc(c24)C(=O)N1CCCNCc1ccccc1Cl)C(=O)N(CCCNCc1ccccc1Cl)C3=O in this test
### Response active

### Prompt Query: recorded result category for Nc1c(C(=O)c2cccc(C#CCO)c2)cnn1-c1ccc(F)cc1 in this test
### Response inactive

### Prompt Query: recorded result category for COc1ccc(C2=CC(c3ccc(OC)cc3Br)N3C=CSC3=N2)cc1 (centres undefined) in this test
### Response inactive

### Prompt Query: recorded result category for O=C1C(SCCO)=C(SCCO)C(=O)N1c1ccc(-c2ccccc2)cc1 in this test
### Response inactive

### Prompt Query: recorded result category for NCCN.O=C([O-])CN1CCOCC1.[OH-].[Pt+4] in this test
### Response inactive
